// reported IC50 for each item listed
tested on: Interleukin-23 receptor (Homo sapiens, UniProt Q5VWK5)
Sequence (Q5VWK5 whole entry): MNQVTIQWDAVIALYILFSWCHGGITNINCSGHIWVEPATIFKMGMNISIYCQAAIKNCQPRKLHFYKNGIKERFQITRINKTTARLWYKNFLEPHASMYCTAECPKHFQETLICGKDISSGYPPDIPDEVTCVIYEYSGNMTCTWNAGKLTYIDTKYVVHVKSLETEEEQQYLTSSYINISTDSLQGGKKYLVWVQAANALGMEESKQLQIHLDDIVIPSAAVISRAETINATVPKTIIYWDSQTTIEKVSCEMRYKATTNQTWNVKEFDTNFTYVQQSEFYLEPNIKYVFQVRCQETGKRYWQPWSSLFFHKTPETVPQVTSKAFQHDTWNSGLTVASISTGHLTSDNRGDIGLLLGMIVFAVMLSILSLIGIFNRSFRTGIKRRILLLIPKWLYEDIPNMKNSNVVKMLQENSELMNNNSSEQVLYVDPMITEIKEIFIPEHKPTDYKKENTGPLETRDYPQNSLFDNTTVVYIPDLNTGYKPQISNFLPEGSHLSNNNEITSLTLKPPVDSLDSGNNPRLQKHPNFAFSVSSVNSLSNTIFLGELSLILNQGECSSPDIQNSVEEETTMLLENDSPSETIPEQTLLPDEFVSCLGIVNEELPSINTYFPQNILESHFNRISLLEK
experiment: Inhibition of interleukin-23 binding to human interleukin-23 receptor incubated for 2 hrs by competitive binding ELISA
Where a SMILES comes first, the peptide text is derived from it.

Previously resolved entries follow.
molecule=CC(=O)NCCCC[C@H](NC(=O)[C@](C)(CCCCNC(C)=O)NC(=O)[C@H](Cc1ccc2ccccc2c1)NC(=O)[C@H](Cc1ccc(OCCNC(C)=O)cc1)NC(=O)[C@@H](NC(=O)[C@H](CCC(N)=O)NC(=O)[C@H](Cc1c[nH]c2ccccc12)NC(=O)[C@@H](NC(=O)[C@H](CCC(N)=O)NC(=O)[C@@H](NC(C)=O)C(C)(C)S)[C@@H](C)O)C(C)(C)S)C(=O)N[C@@H](CC(N)=O)C(=O)NCC(N)=O readout_type=IC50 result="< 10 nM"
molecule="CC(=O)N[C@@H](CS)C(=O)N[C@H](C(=O)N[C@H](C(=O)N[C@@H](Cc1c[nH]c2ccccc12)C(=O)N[C@@H](CCC(=O)O)C(=O)N[C@@H](CS)C(=O)N[C@@H](Cc1ccc(O)cc1)C(=O)N[C@@H](Cc1c[nH]c2ccccc12)C(=O)N[C@@H](Cc1cnc[nH]1)C(=O)N[C@@H](CCC(=O)O)C(=O)N[C@@H](Cc1ccccc1)C(=O)NCC(N)=O)[C@@H](C)O)[C@@H](C)O (Ac-CTTWECYWHEFG-NH2)" readout_type=IC50 result="< 500 nM"
molecule=COc1ccc(C[C@H](NC(=O)[C@@H](NC(=O)[C@H](CCC(N)=O)NC(=O)[C@H](Cc2c[nH]c3ccccc23)NC(=O)[C@@H](NC(=O)[C@H](CCC(N)=O)NC(=O)[C@@H](NC(=O)CC(C)C)C(C)(C)S)[C@@H](C)O)C(C)(C)S)C(=O)N[C@@H](Cc2ccc3ccccc3c2)C(=O)N[C@@](C)(CCCCN)C(=O)N[C@@H](CCCCNC(C)=O)C(=O)N[C@@H](CC(N)=O)C(=O)NCC(N)=O)cc1 readout_type=IC50 result="25 to 100 nM"
molecule=CCCCCCCC[C@H](NC(=O)[C@@H]1CSCC[C@H](NC(C)=O)C(=O)N[C@@H](CCC(N)=O)C(=O)N[C@@H]([C@@H](C)O)C(=O)N[C@@H](Cc2c[nH]c3ccccc23)C(=O)N[C@@H](CCC(N)=O)C(=O)N1)C(=O)N[C@@H](Cc1ccc2ccccc2c1)C(=O)N[C@@](C)(CCCCN)C(=O)N[C@@H](CCCCNC(C)=O)C(=O)N[C@@H](CC(N)=O)C(=O)NCC(N)=O readout_type=IC50 result="10000 nM"

// switching to the query molecule
Lookup result for CC(=O)NCCCC[C@H](NC(=O)[C@](C)(CCCCN)NC(=O)[C@H](Cc1ccc2ccccc2c1)NC(=O)[C@H](Cc1ccc(Cl)c(Cl)c1)NC(=O)[C@@H](NC(=O)[C@H](CCC(N)=O)NC(=O)[C@H](Cc1c[nH]c2ccccc12)NC(=O)[C@@H](NC(=O)[C@H](CCC(N)=O)NC(=O)[C@@H](NC(C)=O)C(C)(C)S)[C@@H](C)O)C(C)(C)S)C(=O)N[C@@H](CC(N)=O)C(=O)NCC(N)=O ; measured IC50: 100 to 1000 nM
